# target: VEGFR-2 (Homo sapiens, UniProt P35968)
# Sequence (P35968 20-1356): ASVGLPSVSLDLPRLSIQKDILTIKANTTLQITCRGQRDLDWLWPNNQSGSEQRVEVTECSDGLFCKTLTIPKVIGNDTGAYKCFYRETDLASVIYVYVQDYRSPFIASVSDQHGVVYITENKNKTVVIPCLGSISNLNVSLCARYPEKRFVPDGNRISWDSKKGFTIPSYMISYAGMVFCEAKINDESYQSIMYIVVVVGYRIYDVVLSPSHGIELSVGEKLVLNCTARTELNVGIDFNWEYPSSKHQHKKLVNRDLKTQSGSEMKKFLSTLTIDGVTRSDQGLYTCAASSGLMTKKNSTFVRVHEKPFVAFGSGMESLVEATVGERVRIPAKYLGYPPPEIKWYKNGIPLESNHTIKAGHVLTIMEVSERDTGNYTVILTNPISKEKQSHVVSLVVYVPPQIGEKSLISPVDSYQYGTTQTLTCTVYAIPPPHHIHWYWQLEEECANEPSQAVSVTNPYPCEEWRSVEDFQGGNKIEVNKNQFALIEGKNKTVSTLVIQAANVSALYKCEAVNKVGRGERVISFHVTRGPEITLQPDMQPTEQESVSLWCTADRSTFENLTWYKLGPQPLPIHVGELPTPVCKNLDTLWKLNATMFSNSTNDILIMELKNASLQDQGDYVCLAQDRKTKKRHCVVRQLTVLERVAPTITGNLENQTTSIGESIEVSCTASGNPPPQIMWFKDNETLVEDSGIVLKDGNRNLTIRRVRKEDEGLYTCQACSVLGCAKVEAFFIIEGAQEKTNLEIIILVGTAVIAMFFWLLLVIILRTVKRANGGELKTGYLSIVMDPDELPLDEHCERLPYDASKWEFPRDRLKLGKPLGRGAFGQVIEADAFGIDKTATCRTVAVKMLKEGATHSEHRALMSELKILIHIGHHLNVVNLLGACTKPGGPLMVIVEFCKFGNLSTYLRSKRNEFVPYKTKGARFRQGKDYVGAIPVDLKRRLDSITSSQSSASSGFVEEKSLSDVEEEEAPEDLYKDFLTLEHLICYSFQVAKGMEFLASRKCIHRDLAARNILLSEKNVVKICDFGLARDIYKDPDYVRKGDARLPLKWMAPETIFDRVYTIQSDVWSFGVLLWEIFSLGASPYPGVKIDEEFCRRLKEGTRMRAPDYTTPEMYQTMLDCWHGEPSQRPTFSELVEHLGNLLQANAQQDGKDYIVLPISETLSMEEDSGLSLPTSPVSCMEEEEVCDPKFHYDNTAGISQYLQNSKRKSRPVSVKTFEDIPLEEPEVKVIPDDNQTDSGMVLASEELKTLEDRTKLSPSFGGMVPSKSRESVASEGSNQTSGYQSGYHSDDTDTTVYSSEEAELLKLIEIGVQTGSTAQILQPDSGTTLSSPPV
# method-description: biochemical
I'd appreciate it if you could supply IC50 values for the items below.
Write the value in nM as a bare number.

Qu. For the compound O=C(CSc1nnc2c3nncn3c3ccccc3n12)Nc1ccc(C(=O)Nc2cccc(Cl)c2)cc1 [Compound 23h] , what IC50 is on record?
Ans. 11.7

Qu. For the compound O=C(CSc1nnc2c3nncn3c3ccccc3n12)Nc1ccc(C(=O)Nc2cc(Cl)ccc2Cl)cc1 [Compound 23j] , what IC50 is on record?
Ans. 3.7

* * *

# target: VEGFR-2 (Homo sapiens, UniProt P35968)
# method-description: biochemical
# reported-conditions: mean ± SD of three separate experiments
I'd appreciate it if you could supply IC50 values for the items below.
Write the value in nM as a bare number.

Qu. Give recorded IC50 with VEGFR-2 (Homo sapiens, UniProt P35968) for the following compound: CC(=O)c1ccc(NC(=O)c2ccc(NC(=O)CSc3nnc4c5nncn5c5ccccc5n34)cc2)cc1 [Compound 23g]
Ans. 62.7

Qu. Give recorded IC50 with VEGFR-2 (Homo sapiens, UniProt P35968) for the following compound: O=C(CSc1nnc2c3nncn3c3ccccc3n12)Nc1ccc(C(=O)NC2CCCCC2)cc1 [Compound 23f]
Ans. 39.5

Qu. Give recorded IC50 with VEGFR-2 (Homo sapiens, UniProt P35968) for the following compound: CCC(C)NC(=O)c1ccc(NC(=O)CSc2nnc3c4nncn4c4ccccc4n23)cc1 (centres unmarked) [Compound 23c]
Ans. 47.1

Qu. Give recorded IC50 with VEGFR-2 (Homo sapiens, UniProt P35968) for the following compound: O=C(CSc1nnc2c3nncn3c3ccccc3n12)Nc1ccc(C(=O)NC2CCCC2)cc1 [Compound 23e]
Ans. 39.8

Qu. Give recorded IC50 with VEGFR-2 (Homo sapiens, UniProt P35968) for the following compound: O=C(CSc1nnc2c3nncn3c3ccccc3n12)Nc1ccc(C(=O)Nc2ccccc2O)cc1 [Compound 23l]
Ans. 5.8

Qu. Give recorded IC50 with VEGFR-2 (Homo sapiens, UniProt P35968) for the following compound: O=C(CSc1nnc2c3nncn3c3ccccc3n12)Nc1ccc(C(=O)Nc2ccc(F)cc2)cc1 [Compound 23k]
Ans. 49.6

Qu. Give recorded IC50 with VEGFR-2 (Homo sapiens, UniProt P35968) for the following compound: CCNC(=O)c1ccc(NC(=O)CSc2nnc3c4nncn4c4ccccc4n23)cc1 [Compound 23a]
Ans. 7.1

Qu. Give recorded IC50 with VEGFR-2 (Homo sapiens, UniProt P35968) for the following compound: O=C(CSc1nnc2c3nncn3c3ccccc3n12)Nc1ccc(C(=O)NNC(=O)c2ccccc2Cl)cc1 [Compound 24a]
Ans. 23.9

* * *

# Test system: HepG2
# method-description: In vitro anti-proliferative activity (MTT assay), HepG2
# Assay type: cell-based, human
# reported-conditions: Homo sapiens, HepG2, 24 h, read-out: IC50 (µM) HepG2
recorded-metric: IC50

Qu. For the molecule O=C(CSc1nnc2c3nncn3c3ccccc3n12)Nc1ccc(C(=O)Nc2cccc(Cl)c2)cc1 [Compound 23h] , what IC50 is on record?
Ans. 22.3 µM

* * *

# Test system: HepG2
# method-description: In vitro anti-proliferative activity (MTT assay), HepG2
# Assay type: cell-based, human
# reported-conditions: Homo sapiens, HepG2; MTT, 24 h treatment; mean ± SD of three separate experiments; read-out: IC50 (µM) HepG2
Decide using IC50 alone. Strictly below 30 µM: Fulfilled. Equal to or above 30 µM: Not fulfilled.

Qu. API: query returns whether the compound falls strictly under 30 µM in IC50. Query: O=C(CSc1nnc2c3nncn3c3ccccc3n12)Nc1ccc(C(=O)Nc2ccc([N+](=O)[O-])cc2O)cc1 [Compound 23n]
Ans. Fulfilled

Qu. API: query returns whether the compound falls strictly under 30 µM in IC50. Query: O=C(CSc1nnc2c3nncn3c3ccccc3n12)Nc1ccc(C(=O)Nc2ccc(O)cc2)cc1 [Compound 23m]
Ans. Fulfilled

Qu. API: query returns whether the compound falls strictly under 30 µM in IC50. Query: CCNC(=O)c1ccc(NC(=O)CSc2nnc3c4nncn4c4ccccc4n23)cc1 [Compound 23a]
Ans. Fulfilled

Qu. API: query returns whether the compound falls strictly under 30 µM in IC50. Query: O=C(CSc1nnc2c3nncn3c3ccccc3n12)Nc1ccc(C(=O)NNC(=O)c2ccccc2Cl)cc1 [Compound 24a]
Ans. Not fulfilled

Qu. API: query returns whether the compound falls strictly under 30 µM in IC50. Query: CC(=O)c1ccc(NC(=O)c2ccc(NC(=O)CSc3nnc4c5nncn5c5ccccc5n34)cc2)cc1 [Compound 23g]
Ans. Not fulfilled

* * *

I'd appreciate it if you could supply IC50 values for the items below.
# target: VEGFR-2 (Homo sapiens)
# method-description: biochemical
# reported-conditions: mean ± SD of three separate experiments
Write the value in nM as a bare number.

Qu. For the compound O=C(CSc1nnc2c3nncn3c3ccccc3n12)Nc1ccc(C(=O)NNC(=O)c2ccccc2O)cc1 [Compound 24c] , what IC50 is on record?
Ans. 20.7

Qu. For the compound CCCCNC(=O)c1ccc(NC(=O)CSc2nnc3c4nncn4c4ccccc4n23)cc1 [Compound 23b] , what IC50 is on record?
Ans. 71.6

Qu. For the compound O=C(CSc1nnc2c3nncn3c3ccccc3n12)Nc1ccc(C(=O)Nc2ccc(Cl)cc2)cc1 [Compound 23i] , what IC50 is on record?
Ans. 9.4

Qu. For the compound O=C(CSc1nnc2c3nncn3c3ccccc3n12)Nc1ccc(C(=O)NNC(=O)c2cccc(Cl)c2)cc1 [Compound 24b] , what IC50 is on record?
Ans. 22.3

Qu. For the compound CC(C)(C)NC(=O)c1ccc(NC(=O)CSc2nnc3c4nncn4c4ccccc4n23)cc1 [Compound 23d] , what IC50 is on record?
Ans. 11.8

Qu. For the compound O=C(CSc1nnc2c3nncn3c3ccccc3n12)Nc1ccc(C(=O)Nc2ccc(O)cc2)cc1 [Compound 23m] , what IC50 is on record?
Ans. 9.7

Qu. For the compound O=C(CSc1nnc2c3nncn3c3ccccc3n12)Nc1ccc(C(=O)Nc2ccc([N+](=O)[O-])cc2O)cc1 [Compound 23n] , what IC50 is on record?
Ans. 7.4
